molecular target: wild-type human cardiac sodium channel, hNav1.5 (Homo sapiens, UniProt Q14524); experiment: Peak INa screening assay (tonic block and use-dependent block); type: cell-based; conditions: tonic block of Peak INa, 0.1 Hz, holding -100 mV, read-out: Peak TB 3 uM
Sequence (Q14524 whole entry): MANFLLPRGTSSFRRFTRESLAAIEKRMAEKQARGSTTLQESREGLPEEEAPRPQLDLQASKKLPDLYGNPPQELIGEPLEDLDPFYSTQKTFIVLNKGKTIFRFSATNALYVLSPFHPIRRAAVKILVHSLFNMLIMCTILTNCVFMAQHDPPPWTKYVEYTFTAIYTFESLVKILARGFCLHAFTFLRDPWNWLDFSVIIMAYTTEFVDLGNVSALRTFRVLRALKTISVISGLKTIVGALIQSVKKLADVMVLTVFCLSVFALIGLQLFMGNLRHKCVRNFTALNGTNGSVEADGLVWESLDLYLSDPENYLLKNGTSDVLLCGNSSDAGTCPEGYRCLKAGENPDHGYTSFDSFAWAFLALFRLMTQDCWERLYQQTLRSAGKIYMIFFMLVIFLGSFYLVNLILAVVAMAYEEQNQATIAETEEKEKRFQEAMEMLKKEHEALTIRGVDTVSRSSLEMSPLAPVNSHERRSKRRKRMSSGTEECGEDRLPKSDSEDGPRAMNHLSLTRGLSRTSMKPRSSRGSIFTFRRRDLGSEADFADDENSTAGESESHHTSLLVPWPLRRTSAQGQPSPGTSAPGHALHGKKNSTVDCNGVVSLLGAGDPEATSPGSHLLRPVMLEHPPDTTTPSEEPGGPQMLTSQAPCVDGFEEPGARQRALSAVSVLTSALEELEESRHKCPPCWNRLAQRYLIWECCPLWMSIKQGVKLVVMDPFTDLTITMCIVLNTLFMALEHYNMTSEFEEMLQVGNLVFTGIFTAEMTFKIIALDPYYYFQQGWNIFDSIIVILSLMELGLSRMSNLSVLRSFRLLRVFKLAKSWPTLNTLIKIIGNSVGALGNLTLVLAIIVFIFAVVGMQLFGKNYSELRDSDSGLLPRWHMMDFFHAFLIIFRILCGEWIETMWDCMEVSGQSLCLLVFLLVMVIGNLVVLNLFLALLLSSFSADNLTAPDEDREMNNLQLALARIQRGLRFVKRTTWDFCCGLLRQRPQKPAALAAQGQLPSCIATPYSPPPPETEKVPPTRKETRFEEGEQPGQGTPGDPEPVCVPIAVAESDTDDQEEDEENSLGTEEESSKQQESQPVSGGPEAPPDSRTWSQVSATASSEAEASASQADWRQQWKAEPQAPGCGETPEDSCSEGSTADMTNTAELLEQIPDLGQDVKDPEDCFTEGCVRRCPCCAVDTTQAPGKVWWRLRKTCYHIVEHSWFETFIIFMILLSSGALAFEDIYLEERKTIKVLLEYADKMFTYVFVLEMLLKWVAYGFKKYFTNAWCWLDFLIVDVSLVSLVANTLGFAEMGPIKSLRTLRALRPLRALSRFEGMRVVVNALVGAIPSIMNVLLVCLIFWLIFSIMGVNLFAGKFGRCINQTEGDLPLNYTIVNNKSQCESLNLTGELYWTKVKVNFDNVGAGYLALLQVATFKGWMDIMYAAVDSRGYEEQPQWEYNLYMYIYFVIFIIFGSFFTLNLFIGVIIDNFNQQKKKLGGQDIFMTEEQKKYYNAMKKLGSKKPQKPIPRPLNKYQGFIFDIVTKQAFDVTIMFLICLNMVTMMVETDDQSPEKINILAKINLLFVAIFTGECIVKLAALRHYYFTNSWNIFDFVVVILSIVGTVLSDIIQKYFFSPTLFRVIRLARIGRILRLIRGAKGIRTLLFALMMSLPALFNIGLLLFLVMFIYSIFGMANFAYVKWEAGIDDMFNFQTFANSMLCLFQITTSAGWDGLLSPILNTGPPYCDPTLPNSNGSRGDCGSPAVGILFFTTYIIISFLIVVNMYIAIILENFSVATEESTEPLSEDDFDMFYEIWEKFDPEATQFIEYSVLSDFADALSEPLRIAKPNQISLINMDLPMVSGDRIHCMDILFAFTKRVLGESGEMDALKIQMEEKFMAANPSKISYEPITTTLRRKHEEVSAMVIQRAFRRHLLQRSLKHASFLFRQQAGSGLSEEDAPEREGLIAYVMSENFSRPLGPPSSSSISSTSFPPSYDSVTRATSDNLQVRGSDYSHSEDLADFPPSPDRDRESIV
Experimental readout: inhibition at 3 µM (%)
Numbers only, in %.

Worked cases, inhibition at 3 µM given:
Cc1nnc(COc2noc3c(F)cc(-c4ccc(OC(F)(F)F)cc4)cc23)o1 [Example 155] | 24.8
Cc1cc(-c2ccc(OC(F)(F)F)cc2)cc2c(OCCn3cncn3)noc12 [Example 89] | 5.7
FC(F)(F)Oc1ccc(-c2ccc3onc(OC[C@@H]4COCCN4)c3c2)cc1 [Example 113] | 54.3
Cc1nnc(COc2noc3ccc(-c4ccc(OC(F)(F)F)cc4)cc23)o1 [Example 99] | 55.6
O=C1CC(COc2noc3ccc(-c4ccc(OC(F)(F)F)cc4)cc23)CN1 (centres unmarked) [Example 46] | 23.7
Fc1cc(-c2ccc3onc(OCc4ncccn4)c3c2)ccc1Cl [Example 8] | 13.1

Count: 3. Required value per item: inhibition at 3 µM.
1. Cc1cc(-c2ccc(OC(F)(F)F)cc2)cc2c(OCc3nnc(C4CC4)o3)noc12 [Example 105]
2. CN1CCN(c2noc3ccc(-c4ccc(OC(F)(F)F)cc4)cc23)CC1 [Example 127]
3. CC(Oc1noc2ccc(-c3ccc(OC(F)(F)F)cc3)cc12)c1ccccn1 (centres unmarked) [Example 98]

A:
1. 9.4
2. 23.7
3. 28.7

Parameters: items (list). Returns: inhibition at 3 µM for each item.
1. O=C(COc1noc2ccc(-c3ccc(OC(F)(F)F)cc3)cc12)N1CCCC1 [Example 121]
2. CC1(COc2noc3ccc(-c4ccc(OC(F)(F)F)cc4)cc23)COC1 [Example 92]

A:
1. 79
2. 9.6

Please look at the items below and tell me inhibition at 3 µM for each one, in order.
1. Cc1ccnc(COc2noc3ccc(-c4ccc(OC(F)(F)F)cc4)cc23)n1 [Example 5]
2. Cc1cc(OC(F)(F)F)ccc1-c1cc2c(OCc3ncccn3)noc2cc1C [Example 29]
3. N#CCOc1noc2ccc(-c3ccc(OC(F)(F)F)cc3)cc12 [Example 103]
4. FC(F)(F)Oc1ccc(-c2ccc3onc(OCC4CCO4)c3c2)cc1 (centres unmarked) [Example 42]
5. Cc1cc(-c2ccc3onc(OCc4ncccn4)c3c2)ccc1OC(F)(F)F [Example 7]

A:
1: 18; 2: 8.1; 3: 18.8; 4: 27.6; 5: 16.3

Give one value of inhibition at 3 µM per listed molecule.
1. C[C@H](COc1noc2ccc(-c3ccc(OC(F)(F)F)cc3)cc12)N1CCCC1=O [Example 119]
2. Cc1cc(-c2cc3c(OCc4ncccn4)noc3cc2C)ccc1OC(F)(F)F [Example 27]
3. Cc1nc(C)n(C(C)COc2noc3ccc(-c4ccc(OC(F)(F)F)cc4)cc23)n1 (centres unmarked) [Example 79]
4. CC(C)n1ccnc1COc1noc2ccc(-c3ccc(OC(F)(F)F)cc3)cc12 [Example 48]
5. Cc1cn(-c2noc3ccc(-c4ccc(OC(F)(F)F)cc4)cc23)cn1 [Example 139]

A:
1: 36.1; 2: 20.8; 3: 26; 4: 9.1; 5: 15.6

Each of the following entries comes with a recorded value; kindly state inhibition at 3 µM for each.
1. Cc1cc(OC(F)(F)F)ccc1-c1ccc2onc(OCc3ncccn3)c2c1 [Example 3]
2. FC1(F)Oc2ccc(-c3ccc4onc(OCc5ncccn5)c4c3)cc2O1 [Example 30]
3. Fc1cc(C(F)(F)F)ccc1-c1ccc2onc(OCc3ncccn3)c2c1 [Example 6]
4. Cc1cc(-c2ccc(OC(F)(F)F)cc2)cc2c(OCCN3CCCC3=O)noc12 [Example 88]

A:
1. 23.2
2. 15.2
3. 29.8
4. 20.8

Would you mind giving inhibition at 3 µM for every molecule in the list below?
1. Cc1nnc(C(C)Oc2noc3ccc(-c4ccc(OC(F)(F)F)cc4)cc23)o1 (centres unmarked) [Example 153]
2. COc1ccnc(CNc2noc3ccc(-c4ccc(OC(F)(F)F)cc4)cc23)n1 [Example 149]

A:
57.6
86.4

Batch: inhibition at 3 µM for all items listed.
1. CC(COc1noc2ccc(-c3ccc(OC(F)(F)F)cc3)cc12)n1cncn1 (centres unmarked) [Example 77]
2. FC(F)(F)Oc1ccc(-c2ccc3onc(OCc4ncco4)c3c2)cc1 [Example 53]

A:
34.6
43.4
